B1: library; a variant is named by its letters at N, in order (parent)
chain: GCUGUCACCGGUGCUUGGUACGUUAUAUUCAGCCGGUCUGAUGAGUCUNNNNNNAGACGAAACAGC

Variants of: B1
Test: normalized RNA/DNA level with ligand (relative to sTRSVctl = 100) (log10 (% of sTRSVctl)); HEK293T overexpressing SLC46A1; ligand concentration (+) RNA-Seq: 6 mM; higher = less ribozyme self-cleavage, higher mRNA level
Conditions: with (6R,S)-folinic acid; ligand present: yes
Quick reference: normalized RNA/DNA level with ligand (log10) of the listed items.
Answer with a bare number; do not write a unit.

# residues, quantitative_readout
measured = [
    ("GCUGUCACCGGUGCUUGGUACGUUAUAUUCAGCCGGUCUGAUGAGUCUUCGCCGAGACGAAACAGC [UCGCCG]", 2.05),
    ("GCUGUCACCGGUGCUUGGUACGUUAUAUUCAGCCGGUCUGAUGAGUCUUAGUGGAGACGAAACAGC [UAGUGG]", 1.89),
    ("GCUGUCACCGGUGCUUGGUACGUUAUAUUCAGCCGGUCUGAUGAGUCUCUGCCAAGACGAAACAGC [CUGCCA]", 2.04),
    ("GCUGUCACCGGUGCUUGGUACGUUAUAUUCAGCCGGUCUGAUGAGUCUGUGUCAAGACGAAACAGC [GUGUCA]", 2.03),
    ("GCUGUCACCGGUGCUUGGUACGUUAUAUUCAGCCGGUCUGAUGAGUCUCGAUGUAGACGAAACAGC [CGAUGU]", 1.99),
]

Q. I have this variant here, GCUGUCACCGGUGCUUGGUACGUUAUAUUCAGCCGGUCUGAUGAGUCUCAGACGAGACGAAACAGC [CAGACG] , and I need its recorded normalized RNA/DNA level with ligand (log10).
A. 2.01
